Test Description: wn = mass fraction of the nth substance listed
Measurement Setup: 293.15 K; 101.3 kPa; Liquid; w1 = 0.3
Measured Endpoint: viscosity (mPa·s)

• CN(CCO)CCO [N-methyldiethanolamine] + O = 3.46
• NCCO [2-aminoethan-1-ol] + O = 2.63
• CC(C)(N)CO [2-amino-2-methylpropan-1-ol] + O = 4.89
• OCCNCCO [diethanolamine] + O = 4.22

---

Test Description: wn = mass fraction of the nth substance listed
Measurement Setup: 318.15 K; 101.3 kPa; Liquid; w1 = 0.3
Measured Endpoint: mass density (kg/m3)

* OCCNCCO [diethanolamine] + O | 1022.7
* CC(C)(N)CO [2-amino-2-methylpropan-1-ol] + O | 986.24
* NCCO [2-aminoethan-1-ol] + O | 1001
* CN(CCO)CCO [N-methyldiethanolamine] + O | 1014.2
